# System: BT-549 breast
# protocol.summary: NCI tumour cell line growth inhibition, 48 h

| molecule | TGI |
| --- | --- |
| COc1cc(OC)cc(Oc2nc3ccc(C(F)(F)F)cc3nc2-c2ccccc2)c1 | > 100 µM |
| C/C(=N\NC(N)=O)C(CN1CCOCC1)C(c1ccccc1)c1c(O)c2ccccc2oc1=O (centres undefined) | > 100 µM |
| Cc1ccc(Nc2nc3ccccc3nc2NS(=O)(=O)c2ccc(N)cc2)cc1 | > 100 µM |
| CC(=O)O[C@H]1CC[C@@]2(C)C(=CC[C@@H]3[C@@H]2CC[C@]2(C)C(=O)/C(=C\c4ccccc4)C[C@@H]32)C1 | > 100 µM |
